Just for reference, paper PMC6811590 is where these values come from.

Biological target: CTLMA2 (Anopheles gambiae, UniProt Q7Q7F8)
Construct: 6xHis-tagged CTLMA2 monomer, secreted from T.ni insect cells (baculovirus, synthetic gene)
Sequence (Q7Q7F8 18-174): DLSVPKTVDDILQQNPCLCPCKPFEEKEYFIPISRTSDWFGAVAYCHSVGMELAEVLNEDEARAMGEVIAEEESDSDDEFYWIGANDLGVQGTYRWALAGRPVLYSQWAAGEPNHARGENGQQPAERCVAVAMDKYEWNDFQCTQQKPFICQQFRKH
Test: SPR steady-state affinity (Biacore T200, protein immobilised on CM5)
Details: PBS, 1 mM CaCl2, 1 mM MgCl2
This section presents molecules with their documented Kd values.

>  <molecule>
CC(=O)N[C@H]1[C@@H](O[C@H]2[C@@H](O)[C@@H](CO)OC(O)[C@@H]2O[C@@H]2O[C@@H](C)[C@@H](O)[C@@H](O)[C@@H]2O)O[C@H](CO)[C@H](O)[C@@H]1O (stereo partly drawn) [compound 386, A blood group trisaccharide]

>  <study-target>
CTLMA2 (Anopheles gambiae, UniProt Q7Q7F8)

>  <Kd / nM>
1770

$$$$
>  <molecule>
CC(=O)N[C@H]1C(O)O[C@H](CO)[C@@H](O)[C@@H]1O (stereo partly drawn) [113,251, GlcNAc monosaccharide]

>  <study-target>
CTLMA2 (Anopheles gambiae, UniProt Q7Q7F8)

>  <Kd / nM>
29700

$$$$
>  <molecule>
CC(=O)N[C@H]1C(O)O[C@H](CO)[C@@H](O[C@@H]2O[C@@H](C)[C@@H](O)[C@@H](O)[C@@H]2O)[C@@H]1O[C@@H]1O[C@H](CO)[C@H](O)[C@H](OS(=O)(=O)O)[C@H]1O (stereo partly drawn) [compound 287, Sulfo-Lewis A]

>  <study-target>
CTLMA2 (Anopheles gambiae, UniProt Q7Q7F8)

>  <Kd / nM>
106

$$$$

----------
List of Kd values.
molecular target: CTL4 (Anopheles gambiae, UniProt Q7Q7F7); construct: gene 1276043; 6xHis-tagged CTL4 monomer, secreted from T.ni insect cells (baculovirus, synthetic gene); test: SPR steady-state affinity (Biacore T200, protein immobilised on CM5); type: binding; settings: PBS, 1 mM CaCl2, 1 mM MgCl2
Sequence (Q7Q7F7 25-177): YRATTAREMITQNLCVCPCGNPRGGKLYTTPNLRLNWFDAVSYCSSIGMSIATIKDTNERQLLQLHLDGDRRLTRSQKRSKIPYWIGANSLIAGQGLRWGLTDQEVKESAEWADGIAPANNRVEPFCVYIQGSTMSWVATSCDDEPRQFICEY

>  <molecule>
CC(=O)N[C@H]1[C@@H](O[C@H]2[C@@H](O)[C@@H](CO)OC(O)[C@@H]2O[C@@H]2O[C@@H](C)[C@@H](O)[C@@H](O)[C@@H]2O)O[C@H](CO)[C@H](O)[C@@H]1O (stereo partly drawn) [compound 386, A blood group trisaccharide]

>  <study-target>
CTL4 (Anopheles gambiae, UniProt Q7Q7F7)

>  <units-of-measure>
µM

>  <Kd>
49.3

$$$$
>  <molecule>
CC(=O)N[C@H]1C(O)O[C@H](CO)[C@@H](O)[C@@H]1O (stereo partly drawn) [113,251, GlcNAc monosaccharide]

>  <study-target>
CTL4 (Anopheles gambiae, UniProt Q7Q7F7)

>  <units-of-measure>
µM

>  <Kd>
27.9

$$$$
>  <molecule>
CC(=O)N[C@H]1C(O)O[C@H](CO)[C@@H](O[C@@H]2O[C@H](COS(=O)(=O)O)[C@H](O)[C@H](O)[C@H]2O)[C@@H]1O (stereo partly drawn)

>  <study-target>
CTL4 (Anopheles gambiae, UniProt Q7Q7F7)

>  <units-of-measure>
µM

>  <Kd>
0.292

$$$$
